- Assayed target: Human TRPV3 (Homo sapiens)
- Construct: expressed in transfected cells; host or cells: CHO cells (selected with G-418)
- Sequence (Q8NET8 1-790): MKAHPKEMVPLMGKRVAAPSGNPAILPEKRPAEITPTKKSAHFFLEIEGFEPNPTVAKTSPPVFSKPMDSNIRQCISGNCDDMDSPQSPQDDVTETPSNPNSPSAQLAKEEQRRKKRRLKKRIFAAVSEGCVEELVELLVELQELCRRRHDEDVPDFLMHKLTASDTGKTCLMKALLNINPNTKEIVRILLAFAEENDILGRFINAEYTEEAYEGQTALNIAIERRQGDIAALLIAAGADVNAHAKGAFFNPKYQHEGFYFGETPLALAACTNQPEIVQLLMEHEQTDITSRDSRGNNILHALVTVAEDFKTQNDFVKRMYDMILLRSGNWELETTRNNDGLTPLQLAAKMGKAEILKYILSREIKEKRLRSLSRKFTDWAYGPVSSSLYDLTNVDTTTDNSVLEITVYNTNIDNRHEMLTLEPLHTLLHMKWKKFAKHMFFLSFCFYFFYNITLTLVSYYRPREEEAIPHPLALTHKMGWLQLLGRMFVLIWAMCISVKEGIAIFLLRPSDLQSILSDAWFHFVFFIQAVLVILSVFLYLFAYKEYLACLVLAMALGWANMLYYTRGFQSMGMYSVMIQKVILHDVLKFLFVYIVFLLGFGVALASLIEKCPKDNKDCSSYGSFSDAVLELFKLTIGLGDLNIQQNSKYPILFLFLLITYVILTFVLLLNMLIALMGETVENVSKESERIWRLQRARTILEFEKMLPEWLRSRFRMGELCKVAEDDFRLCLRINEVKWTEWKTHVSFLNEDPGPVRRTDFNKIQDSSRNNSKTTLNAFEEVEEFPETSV
- Assay protocol: Screening for TRPV3 antagonist using the 45Calcium uptake assay (inhibition of 2-APB induced cellular uptake of radioactive calcium)
- Assay type: cell-based
- Cond: CHO, 10.0 μM test compound; Human TRPV3 expressing CHO cells; 2-APB 500 μM; read-out: Percentage inhibition at 10.0 μM
Structures can show the parent of a compound that is named as a salt.
Measured attribute: inhibition at 10 µM (%)

See these solved cases before continuing.
Compound: COc1cccc(/C=C/c2nc3ccccn3c(=O)c2-c2ccc(C(C)=O)cc2)c1OC1CCCC1
inhibition at 10 µM (%): 94.3
//
Compound: COc1cccc(/C=C/c2nc3ccccn3c(=O)c2-c2ccc(C(F)(F)F)cc2)c1OCC1CC1
inhibition at 10 µM (%): 95.3
//
Compound: O=c1c(-c2ccc(C(F)(F)F)cc2)c(/C=C/c2cccc3c2OCO3)nc2ccccn12
inhibition at 10 µM (%): 74

I: O=c1c(-c2ccccc2)c(/C=C/c2ccc(Cl)cc2)nc2ccccn12
II: COc1cccc(/C=C/c2nc3ccccn3c(=O)c2-c2ccc(C(F)(F)F)cc2)c1OCCN(C)C [Example 15, hydrochloride]
Return label of the item with the larger inhibition at 10 µM. Candidates: I , II . API: response body contains the label of the selected item. II

I: COc1cccc(/C=C/c2nc3ccccn3c(=O)c2-c2ccc(OC(F)(F)F)cc2)c1OC1CCCC1
II: COc1cccc(/C=C/c2nc3ccccn3c(=O)c2-c2cccc(C(F)(F)F)c2)c1OC1CCCC1
III: COc1cccc(/C=C/c2nc3ccccn3c(=O)c2-c2cccc(OC(C)C)c2)c1OC1CCCC1
IV: O=c1c(-c2ccc(C(F)(F)F)cc2)c(/C=C/c2cccnc2)nc2ccccn12
Order the 4 compounds from highest to lowest inhibition at 10 µM. Provide the labels, sequenced as the question asks. III, II, IV, I
